- System: RXF 393 renal
- protocol: NCI tumour cell line growth inhibition, 48 h
Let's look at some compounds and their measured TGI.
readout.name: TGI (µM)

compound="Cc1ccc2c(C3Cc4ccccc4N3C(=O)/C=C\\C(=O)O)c(C)[nH]c2c1 (configuration not stated)" reported_relation== readout_value=93.8
compound=CCCCCCCCCCCCCCCCCC[n+]1ccc2c(C)c3c(c(C)c2c1)c1cc(O)ccc1n3CC reported_relation== readout_value=3.89
compound="COc1cc2c(c(OC)c1OC)-c1ccc(SC)c(=O)cc1C(NC(=O)c1ccccc1)CC2 (configuration not stated)" reported_relation== readout_value=7.88
compound="c1ccc2c(c1)C1CCCCCC21N1CCOCC1 (configuration not stated)" reported_relation=> readout_value=100
compound=Cc1ccc(/C=C/C(=O)C(C)(C)CN2CCCCC2)cc1 reported_relation== readout_value=18.7
compound="C=CCC1(OCc2ccccc2)C(=O)C(=O)OC1C1COC(C)(C)O1 (configuration not stated)" reported_relation=> readout_value=100
compound="COC(=O)C1(C)CCc2c(OC)ccc(OC)c2C1=O (configuration not stated)" reported_relation=> readout_value=100
compound="COC(=O)C1CC2CC(=NNC(N)=O)CC2C1 (configuration not stated)" reported_relation=> readout_value=100
compound=CC1(O)C=CC(=O)C=C1 reported_relation== readout_value=44.4
compound="CN(C)c1ccc(C(Cc2ccccc2)C2NC(=S)NC2=O)cc1 (configuration not stated)" reported_relation=> readout_value=100
compound=NC(N)=NCC[C@H](NC(=O)OCCCCCn1ccc(=O)[nH]c1=O)C(=O)O reported_relation=> readout_value=100
compound="COC(=O)[C@@H]1[C@H](OC(C)=O)CCC2[C@@]3(C[C@@H](c4ccoc4)O[C@@H]3OC)[C@H](C)CC[C@]21C(=O)OC (some centres not stated)" reported_relation=> readout_value=25
compound=O=[N+]([O-])c1cccc2nnccc12 reported_relation=> readout_value=100
compound=CC1=NN(C(=O)c2ccncc2)C(=O)C1 reported_relation=> readout_value=100
compound=N#CC(=C1C=CC(=NO)C=C1)c1ccc(Cl)cc1 reported_relation== readout_value=36.5
compound=O=C(c1ccccc1)c1ccc2nc(-c3c(Cl)c(Cl)c(Cl)c(Cl)c3C(=O)N/N=C/c3ccc(Cl)cc3)[nH]c2c1 reported_relation== readout_value=85.9
compound="C/C=C1\\CN2CCc3c([nH]c4ccccc34)C2CC1C(=O)OC (configuration not stated)" reported_relation=> readout_value=322
compound=COc1cccc(OC)c1C(=O)OCc1ccccc1 reported_relation=> readout_value=100
compound=CCOC(=O)C1=NOC2(C=C(Br)C(=O)C(Br)=C2)C1 reported_relation== readout_value=3.54
compound="CN1C(=O)N(C)C2C1NN=c1s/c(=C\\c3ccc(C(F)(F)F)cc3)c(=O)n12 (configuration not stated)" reported_relation== readout_value=6.77
compound=CN1c2ccccc2C(=O)NC12CCN(CCCC(=O)c1ccc(F)cc1)CC2 reported_relation=> readout_value=100
compound=CC1=C2[C@@H](CC1)[C@]1(C)O[C@@](c3ccccc3)(C[C@H]1OC(=O)CO)[C@H]2OC(=O)/C=C/c1ccccc1 reported_relation== readout_value=1.31

---

- Tested on: NCI-H226 lung
- protocol: NCI tumour cell line growth inhibition, 48 h
readout.name: TGI (µM)

molecule=O=[N+]([O-])c1nccn1CCCNc1ccnc2cc(Cl)ccc12 measurement_target="NCI-H226 lung" reported_relation== readout_value=10.8
molecule="Cc1[nH]c2ccccc2c1C(=O)CC1(O)C(=O)Nc2c(Cl)cc(Cl)cc21 (stereo not given)" measurement_target="NCI-H226 lung" reported_relation== readout_value=42.7
molecule="CCN(CC)CC1CCCCN1CC(=O)N1c2ccccc2C(=O)Nc2cccnc21 (stereo not given)" measurement_target="NCI-H226 lung" reported_relation== readout_value=98.8
molecule="COC(=O)[C@@H]1CC(C(C[N+](=O)[O-])c2ccc(O[Si](C)(C)C(C)(C)C)cc2)C(=O)N1C(=O)OC(C)(C)C (stereo not given in full)" measurement_target="NCI-H226 lung" reported_relation=> readout_value=100
molecule=CN(C)c1ccc(NN=C2SC(=Nc3ccccc3)C(=Nc3ccccc3)S2)cc1 measurement_target="NCI-H226 lung" reported_relation=> readout_value=100
molecule="Fc1ccc(C2SCc3nc4ccccc4n32)c(F)c1 (stereo not given)" measurement_target="NCI-H226 lung" reported_relation=> readout_value=100
molecule="Cc1cccc(C)c1NC(=O)/C(=N/NC(N)=S)C(C)C(=O)c1ccc(Cl)cc1 (stereo not given)" measurement_target="NCI-H226 lung" reported_relation=> readout_value=100
molecule="C=CCC1(OCc2ccccc2)C(=O)C(=O)OC1C1COC(C)(C)O1 (stereo not given)" measurement_target="NCI-H226 lung" reported_relation=> readout_value=100
molecule="OCC1OC(n2cnc3c(N/N=C\\c4ccccn4)ncnc32)C(O)C1O (stereo not given)" measurement_target="NCI-H226 lung" reported_relation=> readout_value=100
molecule=COc1cc(/C=C/c2nc(NC(=S)Nc3ccccc3)nnc2C)cc(OC)c1OC measurement_target="NCI-H226 lung" reported_relation== readout_value=81.4

---

- System: SN12C renal
- protocol: NCI tumour cell line growth inhibition, 48 h
readout.name: TGI (µM)

compound=O=C1C=CC2(C=C1)O[C@H](Cc1ccccc1)[C@@H](Cc1ccccc1)O2 reported_relation== readout_value=3.01
compound=c1cnn2ncc(-c3ccnc(NCCCN4CCOCC4)n3)c2c1 reported_relation=> readout_value=25
compound=FC(F)(F)c1ccc(-c2cnc(-c3ncon3)nc2NC2CCCCCC2)cc1 reported_relation== readout_value=63
compound="CC#CCC1CCC(OCC)=CC1=O (configuration not stated)" reported_relation=> readout_value=100
compound="O=C1OCC2=C1C(c1ccc(Cl)c(Cl)c1)c1cc3c(cc1N2CCO)OCCO3 (configuration not stated)" reported_relation== readout_value=20
compound="COc1ccc(CC2(O)C3CC4CCC2C4C3)cc1 (configuration not stated)" reported_relation=> readout_value=100
compound=CC1=C2[C@@H](CC1)[C@]1(C)O[C@@](c3ccccc3)(C[C@H]1OC(=O)CO)[C@H]2OC(=O)/C=C/c1ccccc1 reported_relation== readout_value=30.2
compound=CN(C)CCCN1c2ccccc2Sc2ccc3ccccc3c21 reported_relation== readout_value=22.9
compound=OCCNCCN1CCN(CCCN2c3ccccc3Sc3ccc(C(F)(F)F)cc32)CC1 reported_relation== readout_value=33.9
compound=COc1cc2nc(N3CCCC3)nc(NCCc3ccccc3)c2cc1OC reported_relation== readout_value=3.79
compound=Nc1n[n+](CC(=O)c2ccccc2)c2sc(-c3ccccc3)nn12 reported_relation=> readout_value=100
compound=CN(C)c1ccc(NN=C2SC(=Nc3ccccc3)C(=Nc3ccccc3)S2)cc1 reported_relation=> readout_value=100
compound=O=C(NC1CCCCC1)NS(=O)(=O)c1ccc2c(c1)CCC2 reported_relation=> readout_value=100
compound=O=S(=O)(Nc1cc(Sc2cccc3cccnc23)c(O)c2ccccc12)c1ccc(F)cc1 reported_relation== readout_value=3.61
compound=N#CC(C#N)=C1NC(=O)CC(=O)N1 reported_relation=> readout_value=100
compound=COc1cc2c(c(OC)c1)/C(=C/Sc1ccccc1)C(=O)N(C(C)(C)C)C2 reported_relation== readout_value=69
compound=O=C(CCl)NNC1=Nc2ccc(Cl)cc2SC1 reported_relation== readout_value=4.07
compound=COc1ccc2cc1Oc1ccc(cc1)C[C@H]1c3c(cc4c(c3Oc3cc5c(cc3OC)CCN(C)[C@@H]5C2)OCO4)CCN1C reported_relation== readout_value=10.6
compound="O=C(NC1CCCCC1NC(c1ccccc1)(c1ccccc1)c1ccccc1)C(=O)NC1CCCCC1NC(c1ccccc1)(c1ccccc1)c1ccccc1 (configuration not stated)" reported_relation=> readout_value=100
compound=CC1(O)C=CC(=O)C=C1 reported_relation=> readout_value=100
compound="CCc1ccc2c(c1)N(CCO)C1=C(C(=O)OC1)C2c1cccc(Br)c1 (configuration not stated)" reported_relation== readout_value=18.9
compound="N#CC1(C(N)=O)C(c2ccc(Cl)cc2)CC(=O)CC1c1ccc(Cl)cc1 (configuration not stated)" reported_relation== readout_value=35.3
compound="CC(C)C[C@H](NC(=O)CNC(=O)c1cc(Cl)ccc1Cl)B1OC(=O)CC(CC(=O)O)(C(=O)O)O1 (some centres not stated)" reported_relation== readout_value=0.982
compound="NC(N)=NCCCC(NC(=O)c1cccc2c(=O)c3ccccc3[nH]c12)C(=O)O (configuration not stated)" reported_relation=> readout_value=100
compound=CO/N=C(\COc1ccc2c(c1)[nH]c1ccccc12)c1ccc(F)cc1 reported_relation=> readout_value=100
compound="NC(=O)c1csc(C2OC(CO)C(O)C2O)n1 (configuration not stated)" reported_relation=> readout_value=8480
compound=COc1cc(/C=C/c2nc(NC(=S)Nc3ccccc3)nnc2C)cc(OC)c1OC reported_relation=> readout_value=100
compound=COc1cc(C(=O)C/C(CCC(=O)Nc2ccccc2[N+](=O)[O-])=N\NC(N)=O)ccc1O reported_relation=> readout_value=100
compound="COc1c(Br)cc2c(c1OC)C(Br)CCC(Br)(Br)C2=O (configuration not stated)" reported_relation== readout_value=1.42
compound="N#C[C@H](OC1OC(COC2OC(CO)C(O)C(O)C2O)C(O)C(O)C1O)c1ccccc1 (some centres not stated)" reported_relation=> readout_value=250
compound=COc1ccc(-c2nc(Nc3cc(C)[nH]n3)c3ccccc3n2)cc1 reported_relation=> readout_value=100
compound=COc1cccc(OC)c1C(=O)OCc1ccccc1 reported_relation=> readout_value=100
compound=C/C(=C\c1ccc2ccccc2c1)[N+](=O)[O-] reported_relation== readout_value=3.23
compound=C[n+]1ccc(/C2=C3\C=CC(=N3)/C(c3cc[n+](C)cc3)=c3/cc/c([nH]3)=C(\c3cc[n+](C)cc3)C3=N/C(=C(/c4cc[n+](C)cc4)C4C=CC2N4)C=C3)cc1 reported_relation=> readout_value=100
compound=CN(C)CCCn1c(=O)c2ccccc2c2ccccc21 reported_relation=> readout_value=100
compound=C/C(=N\Nc1ccc([N+](=O)[O-])cc1[N+](=O)[O-])c1sc(-n2nc(-c3ccccc3)cc2-c2ccccc2)nc1C reported_relation=> readout_value=100
compound=C#C[C@]1(O)CCCC2=CC(=O)CC[C@@]21C reported_relation=> readout_value=100
compound=NNC(=O)CS(=O)(=O)Nc1ncccn1 reported_relation=> readout_value=100
compound="CC(=O)C1C(=O)C(=O)N(c2cccc([N+](=O)[O-])c2)C1=O (configuration not stated)" reported_relation=> readout_value=100
compound="CC(=O)Nc1ccc(C(O)/C(=N/N)c2nc3ccc(Cl)cc3[nH]c2=O)cc1 (configuration not stated)" reported_relation=> readout_value=100
compound=NCCSS(=O)(=O)CCN reported_relation=> readout_value=100
compound=COc1cc2c(cc1OCCCn1c(-c3ccccn3)nc3ccccc31)N=C[C@@H]1CCCN1C2=O reported_relation== readout_value=15.1

These measurements were taken from PubChem BioAssay (NCI).
